measurement protocol: yeast display, Sf9 membrane polyspecificity reagent, FACS + sequencing; frameworks hold sequencing errors

seq text	polyreactivity (PSR sort gate)
QVQLVESGGGLVQAGGSLRLSCAASGRTFPIYAMGWYRQARGKERELVAAITYSGGSTYYADSVKGRFTISRDNAKNTDYLQMNSQKPEDTAVYYCAVDGTKPYWHQRYDYWGQGTQVTGSS	low polyreactivity
QVQLVESGGGLVQAGGSLRLSCAASGSIFQSYAMGWYRQAPGKERELVAAITERGGSTYYADSVKGRFTISRDTAKNTVYLQMNSLKPEDTAVYYCAADIYYWWCLSDLYTPTEGDYWGQGTQVTVSS	low polyreactivity
QVQLVESGGGLVQAGGSLRLSCAASGFIFSYYAMGLYRQAPGKERELVAAIDYSGGSTNYADSVKGRFTISRDIAKYTVYLQMNSLKPEDTAVYYCNAEYTWHRGYDYWGQGTQVTVSS	low polyreactivity
